- System: Huh-7.5 cells
- TEST: Cell viability assay ([…]-GLO)
- Type: cell-based, human
- ASSAY_CONTEXT: 10 μM
For each of the compounds below, state its Cell Viability (% @ 10 μM).
Write the number in % without appending the unit.

### Prompt If you can, please state the reported Cell Viability (% @ 10 μM) value of Cc1ccc2nc(-c3ccc(NC(=O)c4ccc(NC(=O)Nc5ccccc5)cc4)cc3)sc2c1S(=O)(=O)O.N .
### Response 113

### Prompt If you can, please state the reported Cell Viability (% @ 10 μM) value of Cc1ccc2nc(-c3ccc4nc(-c5ccc(NC(=O)c6ccc(C(F)(F)F)c(F)c6)cc5)sc4c3)sc2c1S(=O)(=O)O .
### Response 129

### Prompt If you can, please state the reported Cell Viability (% @ 10 μM) value of Cc1ccc2nc(-c3ccc4nc(-c5ccc(NC(=S)Nc6ccccc6)cc5)sc4c3)sc2c1S(=O)(=O)O.N .
### Response 98

### Prompt If you can, please state the reported Cell Viability (% @ 10 μM) value of Cc1ccc2nc(-c3ccc(NC(=O)c4ccc(NS(=O)(=O)c5ccccc5)cc4)cc3)sc2c1S(=O)(=O)O .
### Response 119

### Prompt If you can, please state the reported Cell Viability (% @ 10 μM) value of COc1ccc(NC(=O)Nc2ccc(-c3nc4ccc(-c5nc6ccc(C)c(S(=O)(=O)O)c6s5)cc4s3)cc2)cc1 .
### Response 99

### Prompt If you can, please state the reported Cell Viability (% @ 10 μM) value of Cc1ccc2nc(-c3ccc4nc(-c5ccc(NC(=O)c6ccc(C(F)(F)F)cc6)cc5)sc4c3)sc2c1S(=O)(=O)O .
### Response 90

### Prompt If you can, please state the reported Cell Viability (% @ 10 μM) value of Cc1ccc2nc(-c3ccc4nc(-c5ccc(NC(=O)c6ccc7nc(-c8ccc(N)cc8)sc7c6)cc5)sc4c3)sc2c1S(=O)(=O)O .
### Response 85

---

- SYSTEM_TESTED: HCV NS3 helicase NS3h_1b(con1) (Hepatitis C virus genotype 1b, UniProt Q9WMX2)
- Construct: truncated C-terminally His-tagged NS3 proteins lacking the N-terminal protease, called NS3h; His-tag (C); made in house
- Sequence (Q9WMX2 1192-1657): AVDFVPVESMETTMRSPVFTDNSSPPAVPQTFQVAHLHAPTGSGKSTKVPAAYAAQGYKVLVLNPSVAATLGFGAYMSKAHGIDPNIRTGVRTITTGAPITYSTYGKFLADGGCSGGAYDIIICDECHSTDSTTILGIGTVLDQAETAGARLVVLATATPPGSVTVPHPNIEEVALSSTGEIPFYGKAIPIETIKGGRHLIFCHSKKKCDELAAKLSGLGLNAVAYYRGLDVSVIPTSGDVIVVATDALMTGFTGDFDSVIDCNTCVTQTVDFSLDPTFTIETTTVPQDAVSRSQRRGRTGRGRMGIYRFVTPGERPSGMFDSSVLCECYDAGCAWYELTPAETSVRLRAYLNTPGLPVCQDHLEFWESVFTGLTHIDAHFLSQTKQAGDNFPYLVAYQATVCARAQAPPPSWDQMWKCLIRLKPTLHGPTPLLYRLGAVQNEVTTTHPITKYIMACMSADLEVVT
- TEST: MBHA screen of NCI mechanistic set library at 20 μM (percent inhibition, compound interference)
- Format: biochemical
- ASSAY_CONTEXT: compounds at 20 μM; assay interference calculated with Equation 2 (fluorescence vs DMSO-only controls before ATP)
MEASURE_NAME: Int.* (Ratio) (Interference)
Write the number in Ratio without appending the unit.

### Prompt If you can, please state the reported Int.* (Ratio) (Interference) value of CC1(C)N=C(N)N=C(N)N1c1ccc(CCCCc2ccc(Cl)cc2Cl)cc1 [Compound 104129] .
### Response 0.92

### Prompt If you can, please state the reported Int.* (Ratio) (Interference) value of COC1=C(N)C(=O)c2nc(-c3nc(C(=O)O)c(C)c(-c4ccc(OC)c(OC)c4O)c3N)ccc2C1=O [Compound 45383] .
### Response 1.05

### Prompt If you can, please state the reported Int.* (Ratio) (Interference) value of NC(=O)N/N=C1\CC2C3CC4C2C4C13 (stereo not drawn) [Compound 673912] .
### Response 1.04

### Prompt If you can, please state the reported Int.* (Ratio) (Interference) value of COC(=O)Nc1nc2ccc(Br)cc2[nH]1 [Compound 154754] .
### Response 0.91

### Prompt If you can, please state the reported Int.* (Ratio) (Interference) value of Oc1cc(-n2cccn2)c(O)cc1-n1cccn1 [Compound 645987] .
### Response 0.88

### Prompt If you can, please state the reported Int.* (Ratio) (Interference) value of O=C(CC1(O)C(=O)Nc2c(Cl)cc(Cl)cc21)c1cccc([N+](=O)[O-])c1 (stereo not drawn) [Compound 635438] .
### Response 1.02

### Prompt If you can, please state the reported Int.* (Ratio) (Interference) value of O=[N+]([O-])c1cc(-c2nc(=S)[nH][nH]2)ccc1O [Compound 635563] .
### Response 0.92

### Prompt If you can, please state the reported Int.* (Ratio) (Interference) value of Cc1cc([N+](=O)[O-])ccc1Nc1cccc(Cl)c1C [Compound 625641] .
### Response 1.20

### Prompt If you can, please state the reported Int.* (Ratio) (Interference) value of O=C(NC(=O)c1c(Cl)nc2sccn12)Nc1ccc(Cl)cc1 [Compound 633209] .
### Response 0.87

meta.source: patent US9464064B2
